- EXPERIMENTAL_PROTOCOL: Half life in rat liver microsomes
- Format: ADME
ASSAY_ENDPOINT: half-life (h)

>>> print(df.to_string())
                                   molecule  quantity_unit  value_comparator  observed_value
0  Cc1ccc(-c2nc(C)c([C@H](OC(C)(C)C)C(=O)O)c(-c3ccc4c(c3C)CCCO4)c2C)cc1C (single isomer, unassigned; atropisomer)              h                 =             1.5
1  Cc1ccc(-c2nc(C)c([C@H](OC(C)(C)C)C(=O)O)c(-c3ccc4c(c3Cl)NCCO4)c2C)cc1C (single isomer, unassigned; atropisomer)              h                 =           0.933
2  Cc1ccc(-c2nc(C)c([C@H](OC(C)(C)C)C(=O)O)c(-c3ccc(Cl)cc3)c2C)cc1C              h                 =            0.85
3  Cc1ccc(-c2nc(C)c([C@H](OC(C)(C)C)C(=O)O)c(-c3ccc4c(c3)CCCO4)c2C)cc1C              h                 =            1.83
4  Cc1nc2ccccc2c(-c2ccc3c4c(ccnc24)CCO3)c1[C@H](OC(C)(C)C)C(=O)O [BI-224436]              h                 >               5
5  Cc1noc(C)c1-c1ccc(-c2nc(C)c([C@H](OC(C)(C)C)C(=O)O)c(-c3ccc(Cl)cc3)c2C)cc1              h                 =            2.67

---

# key: entry, value: EC50
- System: Human immunodeficiency virus 1
- EXPERIMENTAL_PROTOCOL: Antiviral activity against HIV1 NL4.3 harboring integrase T124/T125 mutant
- Assay type: functional, organism-based
- CONDITION: Human immunodeficiency virus 1, NL4.3
ASSAY_ENDPOINT: EC50 (nM)

>>> print(df.to_string())
                                    compound             experimental_target  assay_endpoint  quantity_unit  observed_value
 0  Cc1ccc(-c2nc(C)c([C@H](OC(C)(C)C)C(=O)O)c(-c3ccc4c(c3C)CCCO4)c2C)cc1C (single isomer, unassigned; atropisomer)  Human immunodeficiency virus 1            EC50             nM             2.7
 1  Cc1nc(-c2cccc(-c3ccnn3C)c2)c(C)c(-c2ccc3c(c2)CCCO3)c1[C@H](OC(C)(C)C)C(=O)O  Human immunodeficiency virus 1            EC50             nM              10
 2  Cc1ccc(-c2nc(C)c([C@H](OC(C)(C)C)C(=O)O)c(-c3ccc4c(c3)CCCO4)c2C)cc1  Human immunodeficiency virus 1            EC50             nM              18
 3  Cc1nc(-c2ccccc2)c(C)c(-c2ccc3c(c2)CCCO3)c1[C@H](OC(C)(C)C)C(=O)O  Human immunodeficiency virus 1            EC50             nM              68
 4  Cc1nc2c(ccc3ccccc32)c(-c2ccc3c(c2)CCCO3)c1[C@H](OC(C)(C)C)C(=O)O  Human immunodeficiency virus 1            EC50             nM              62
 5  Cc1nc2c(c(-c3ccc4c(c3)CCCO4)c1[C@H](OC(C)(C)C)C(=O)O)Cc1ccccc1-2  Human immunodeficiency virus 1            EC50             nM              72
 6  Cc1noc(C)c1-c1ccc(-c2nc(C)c([C@H](OC(C)(C)C)C(=O)O)c(-c3ccc4c(c3)CCCO4)c2C)c(F)c1  Human immunodeficiency virus 1            EC50             nM             7.3
 7  Cc1cccc(-c2nc(C)c([C@H](OC(C)(C)C)C(=O)O)c(-c3ccc4c(c3)CCCO4)c2C)c1  Human immunodeficiency virus 1            EC50             nM              23
 8  Cc1cc(-c2nc(C)c([C@H](OC(C)(C)C)C(=O)O)c(-c3ccc4c(c3)CCCO4)c2C)ccc1Cl  Human immunodeficiency virus 1            EC50             nM             5.8
 9  Cc1ccc(-c2nc(C)c([C@H](OC(C)(C)C)C(=O)O)c(-c3ccc(Cl)cc3)c2C)cc1C  Human immunodeficiency virus 1            EC50             nM              14
10  Cc1nc(-c2cccc(-c3cnn(C)c3)c2)c(C)c(-c2ccc3c(c2)CCCO3)c1[C@H](OC(C)(C)C)C(=O)O  Human immunodeficiency virus 1            EC50             nM              24
11  Cc1nc2c(c(-c3ccc4c(c3)CCCO4)c1[C@H](OC(C)(C)C)C(=O)O)CCCc1ccccc1-2  Human immunodeficiency virus 1            EC50             nM             560
12  Cc1noc(C)c1-c1ccc(-c2nc(C)c([C@H](OC(C)(C)C)C(=O)O)c(-c3ccc4c(c3)CCCO4)c2C)cc1  Human immunodeficiency virus 1            EC50             nM             5.5
13  Cc1ccc(-c2nc(C)c([C@H](OC(C)(C)C)C(=O)O)c(-c3ccc4c(c3Cl)NCCO4)c2C)cc1C (single isomer, unassigned; atropisomer)  Human immunodeficiency virus 1            EC50             nM             3.3
14  Cc1noc(C)c1-c1ccc(-c2nc(C)c([C@H](OC(C)(C)C)C(=O)O)c(-c3ccc(Cl)cc3)c2C)cc1  Human immunodeficiency virus 1            EC50             nM             7.7
